Data provenance is patent US20130029928A1.

- TEST_DESCRIPTION: Phase I study CXR1002-001: plasma pharmacokinetics (LC-MS/MS)
- Format: in vivo, human
- CONDITIONS: human, plasma, oral, 50 mg, Patient 004 Dose 50 mg; 696 hr (Day 30); read-out: Concentration
READOUT: concentration at 696 hr (µM)
Value expressed in µM; do not type the unit.

Bench note: what concentration at 696 hr did `O=C(O)C(F)(F)C(F)(F)C(F)(F)C(F)(F)C(F)(F)C(F)(F)C(F)(F)F` show?
77.5

---

- System: A549
- TEST_DESCRIPTION: SRB cytotoxicity assay 48 hr
- Type: cell-based, human
- CONDITIONS: read-out: IC50 Values After 48 Hrs Exposure
READOUT: pIC50
Just so you know, pIC50 here is -log10 of the concentration in molar units; reply with that number alone.

Bench note: what pIC50 did `O=C(O)C(F)(F)C(F)(F)C(F)(F)C(F)(F)C(F)(F)C(F)(F)C(F)(F)F` show?
3.64

---

- TEST_DESCRIPTION: Phase I study CXR1002-001: plasma pharmacokinetics (LC-MS/MS)
- Format: in vivo, human
- CONDITIONS: human, plasma, oral, 750 mg, Patient 028, 750 mg, person, plasma, 360 hr (Day 16); read-out: Concentration
READOUT: concentration at 360 h (µM)
Value expressed in µM; do not type the unit.

Bench note: what concentration at 360 h did `O=C(O)C(F)(F)C(F)(F)C(F)(F)C(F)(F)C(F)(F)C(F)(F)C(F)(F)F` show?
450

---

- TEST_DESCRIPTION: Phase I study CXR1002-001: plasma pharmacokinetics (LC-MS/MS)
- Format: in vivo, human
- CONDITIONS: human, plasma, po, 1200 mg, Patient 037, 1200 mg weekly oral dose, Time 676 hr; read-out: Concentration (plasma level)
READOUT: concentration at 676 h (µM)
Value expressed in µM; do not type the unit.

Bench note: what concentration at 676 h did `O=C(O)C(F)(F)C(F)(F)C(F)(F)C(F)(F)C(F)(F)C(F)(F)C(F)(F)F` show?
1450

---

- TEST_DESCRIPTION: Phase I study CXR1002-001: plasma pharmacokinetics (LC-MS/MS)
- Type: in vivo, human
- CONDITIONS: human, plasma, oral, 600 mg, Patient 021, 600 mg, person, plasma, 24 hr (Day 2); read-out: Concentration
READOUT: concentration at 24 h
I'd appreciate it if you included the unit after the number.

Bench note: what concentration at 24 h did `O=C(O)C(F)(F)C(F)(F)C(F)(F)C(F)(F)C(F)(F)C(F)(F)C(F)(F)F` show?
203 µM

---

- TEST_DESCRIPTION: Phase I study CXR1002-001: plasma pharmacokinetics (LC-MS/MS)
- Type: in vivo, human
- CONDITIONS: human, plasma, oral, 100 mg, Patient 006 Dose 100 mg; 171 hr; read-out: Concentration
READOUT: concentration at 171 hr (µM)
Value expressed in µM; do not type the unit.

Bench note: what concentration at 171 hr did `O=C(O)C(F)(F)C(F)(F)C(F)(F)C(F)(F)C(F)(F)C(F)(F)C(F)(F)F` show?
41.1

---

- TEST_DESCRIPTION: Dietary APFO (300 ppm) study in rats: plasma glucose, triglycerides, cholesterol, AST, ALT, APFO level
- Type: in vivo, rat
- CONDITIONS: male, Sprague Dawley, rat, oral, 300 ppm in diet, week 4
READOUT: concentration at 4 weeks (µM)
Value expressed in µM; do not type the unit.

Bench note: what concentration at 4 weeks did O=C(O)C(F)(F)C(F)(F)C(F)(F)C(F)(F)C(F)(F)C(F)(F)C(F)(F)F [APFO, Ammonium Perfluorooctanoate] show?
257

---

- TEST_DESCRIPTION: Phase I study CXR1002-001: plasma pharmacokinetics (LC-MS/MS)
- Type: in vivo, human
- CONDITIONS: human, plasma, oral, 50 mg, Patient 002 Dose 50 mg; 0 hr
READOUT: concentration at 0 h
I'd appreciate it if you included the unit after the number.

Bench note: what concentration at 0 h did `O=C(O)C(F)(F)C(F)(F)C(F)(F)C(F)(F)C(F)(F)C(F)(F)C(F)(F)F` show?
0 nM

---

- TEST_DESCRIPTION: Phase I study CXR1002-001: plasma pharmacokinetics (LC-MS/MS)
- Type: in vivo, human
- CONDITIONS: human, plasma, oral, 1200 mg, Patient 033, 1200 mg, person, plasma, 506 hr; read-out: Concentration
READOUT: concentration at 506 h (µM)
Value expressed in µM; do not type the unit.

Bench note: what concentration at 506 h did `O=C(O)C(F)(F)C(F)(F)C(F)(F)C(F)(F)C(F)(F)C(F)(F)C(F)(F)F` show?
1150

---

- TEST_DESCRIPTION: Phase I study CXR1002-001: plasma pharmacokinetics (LC-MS/MS)
- Assay type: in vivo, human
- CONDITIONS: human, plasma, oral, 600 mg, Patient 023, 600 mg, person, plasma, 168 hr (Day 8); read-out: Concentration
READOUT: concentration at 168 h (µM)
Value expressed in µM; do not type the unit.

Bench note: what concentration at 168 h did `O=C(O)C(F)(F)C(F)(F)C(F)(F)C(F)(F)C(F)(F)C(F)(F)C(F)(F)F` show?
204

---

- TEST_DESCRIPTION: Phase I study CXR1002-001: plasma pharmacokinetics (LC-MS/MS)
- Assay type: in vivo, human
- CONDITIONS: human, plasma, oral, 750 mg, Patient 026, 750 mg, person, plasma, 168 hr (Day 8); read-out: Concentration
READOUT: concentration at 168 h (µM)
Value expressed in µM; do not type the unit.

Bench note: what concentration at 168 h did O=C(O)C(F)(F)C(F)(F)C(F)(F)C(F)(F)C(F)(F)C(F)(F)C(F)(F)F [CXR1002] show?
186

---

- TEST_DESCRIPTION: Phase I study CXR1002-001: plasma pharmacokinetics (LC-MS/MS)
- Type: in vivo, human
- CONDITIONS: human, plasma, oral, 600 mg, Patient 022, 600 mg, person, plasma, 340 hr; read-out: Concentration
READOUT: concentration at 340 h (µM)
Value expressed in µM; do not type the unit.

Bench note: what concentration at 340 h did O=C(O)C(F)(F)C(F)(F)C(F)(F)C(F)(F)C(F)(F)C(F)(F)C(F)(F)F [CXR1002] show?
405

---

- TEST_DESCRIPTION: Phase I study CXR1002-001: plasma pharmacokinetics (LC-MS/MS)
- Type: in vivo, human
- CONDITIONS: human, plasma, oral, 100 mg, Patient 006 Dose 100 mg; 672 hr (Day 29); read-out: Concentration
READOUT: concentration at 672 h (µM)
Value expressed in µM; do not type the unit.

Bench note: what concentration at 672 h did `O=C(O)C(F)(F)C(F)(F)C(F)(F)C(F)(F)C(F)(F)C(F)(F)C(F)(F)F` show?
86.9

---

- TEST_DESCRIPTION: Phase I study CXR1002-001: plasma pharmacokinetics (LC-MS/MS)
- Format: in vivo, human
- CONDITIONS: human, plasma, po, 1000 mg, Patient 042, 1000 mg weekly oral dose, Time 170 hr; read-out: Concentration (plasma level)
READOUT: concentration at 170 hr (µM)
Value expressed in µM; do not type the unit.

Bench note: what concentration at 170 hr did `O=C(O)C(F)(F)C(F)(F)C(F)(F)C(F)(F)C(F)(F)C(F)(F)C(F)(F)F` show?
391

---

- TEST_DESCRIPTION: Phase I study CXR1002-001: plasma pharmacokinetics (LC-MS/MS)
- Assay type: in vivo, human
- CONDITIONS: human, plasma, oral, 50 mg, Patient 004 Dose 50 mg; 843 hr; read-out: Concentration
READOUT: concentration at 843 h (µM)
Value expressed in µM; do not type the unit.

Bench note: what concentration at 843 h did `O=C(O)C(F)(F)C(F)(F)C(F)(F)C(F)(F)C(F)(F)C(F)(F)C(F)(F)F` show?
80.5

---

- TEST_DESCRIPTION: Phase I study CXR1002-001: plasma pharmacokinetics (LC-MS/MS)
- Format: in vivo, human
- CONDITIONS: human, plasma, oral, 200 mg, Patient 009 Dose 200 mg; Week 25
READOUT: concentration at 25 week (µM)
Value expressed in µM; do not type the unit.

Bench note: what concentration at 25 week did `O=C(O)C(F)(F)C(F)(F)C(F)(F)C(F)(F)C(F)(F)C(F)(F)C(F)(F)F` show?
501
